Would you kindly list pIC50 for each of these compounds?
# Measurement Target: CDK7/Cyclin H/MNAT1 (Homo sapiens)
# Sequence (P50613 whole entry): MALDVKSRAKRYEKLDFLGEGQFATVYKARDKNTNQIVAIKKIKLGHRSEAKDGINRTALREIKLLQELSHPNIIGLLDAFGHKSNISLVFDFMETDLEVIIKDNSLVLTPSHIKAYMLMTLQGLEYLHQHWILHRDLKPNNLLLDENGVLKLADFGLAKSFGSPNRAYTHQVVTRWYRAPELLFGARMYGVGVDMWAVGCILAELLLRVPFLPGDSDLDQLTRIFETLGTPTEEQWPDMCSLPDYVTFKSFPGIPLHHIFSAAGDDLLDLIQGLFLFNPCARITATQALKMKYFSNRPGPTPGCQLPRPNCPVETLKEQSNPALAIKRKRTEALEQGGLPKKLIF
# Sequence (P51946 whole entry partner): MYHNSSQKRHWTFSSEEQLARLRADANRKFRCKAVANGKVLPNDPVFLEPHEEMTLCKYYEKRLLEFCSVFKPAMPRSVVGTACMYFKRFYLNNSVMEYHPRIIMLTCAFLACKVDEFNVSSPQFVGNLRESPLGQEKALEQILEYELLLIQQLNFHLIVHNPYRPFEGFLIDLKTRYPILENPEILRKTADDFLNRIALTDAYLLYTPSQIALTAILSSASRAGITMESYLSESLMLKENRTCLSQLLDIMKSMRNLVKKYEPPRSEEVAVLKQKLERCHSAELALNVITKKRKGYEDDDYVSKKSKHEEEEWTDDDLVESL
# Sequence (P51948 whole entry partner): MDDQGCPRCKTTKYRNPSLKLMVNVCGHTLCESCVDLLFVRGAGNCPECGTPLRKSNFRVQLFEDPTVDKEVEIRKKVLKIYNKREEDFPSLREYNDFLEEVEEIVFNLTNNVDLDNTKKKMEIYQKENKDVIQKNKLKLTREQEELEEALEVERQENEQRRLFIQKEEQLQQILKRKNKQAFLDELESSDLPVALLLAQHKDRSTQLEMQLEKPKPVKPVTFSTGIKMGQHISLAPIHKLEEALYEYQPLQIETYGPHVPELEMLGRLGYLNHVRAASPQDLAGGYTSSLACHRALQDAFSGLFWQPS
# Method Notes: Enzymatic assay for CDK7 (LANCE Ultra kinase assay, FRET based)
# Condition Context: ATP at Km
pIC50: −log10 of the molar value.

Record C=C(Cl)C(=O)Nc1ccc2c(-c3ccccc3CNc3nc(N[C@H]4CC[C@H](OC)CC4)nc4c(C(C)C)cnn34)nccc2c1 [Compound 209] , field pIC50: > 7.00

GET /value?item= CC(C)c1cnn2c(NCc3ccccc3-c3nccc4cc(NC(=O)/C=C/CN(C)C)ccc34)nc(N3CCC(=O)CC3)nc12 [Compound 106] &field=pIC50 returns 6.00 to 7.00

Sure, the documented pIC50 for CC(C)c1cnn2c(NCc3ccccc3-c3nccc4cc(NC(=O)/C=C/CN(C)C)ccc34)nc(N3CCC(C#N)CC3)nc12 [Compound 105] is 6.00 to 7.00

So for CC(C)c1cnn2c(NCc3ccccc3-c3nccc4cc(NC(=O)/C=C/CN(C)C)ccc34)nc(NC3CC4CCC(C3)N4C)nc12 (centres unmarked) [Compound 130] , the logged pIC50 turned out to be > 7.00

Entry CC(C)c1cnn2c(NCc3ccccc3OC3CCN(C(=O)/C=C/CN(C)C)CC3)nc(N3CCC(N)CC3)nc12 [Compound 6] ; pIC50 = > 7.00

# pIC50 of Cc1cccc(-c2ccc3cccc(NC(=O)/C=C/CN(C)C)c3n2)c1CNc1nc(N2CCC(N)CC2)nc2c(C(C)C)cnn12 [Compound 56] = > 7.00

# pIC50 of C=C(F)C(=O)Nc1ccc2c(-c3ccccc3CNc3nc(O[C@@H]4CCCNC4)nc4c(C(C)C)cnn34)nccc2c1 [Compound 137] = > 7.00

The measured pIC50 associated with CO[C@H]1CNCC[C@@H]1CNc1nc(NCc2ccccc2-c2nccc3cc(NC(=O)/C=C/CN(C)C)ccc23)n2ncc(C(C)C)c2n1 [Compound 131] reads > 7.00

Query C=C(F)C(=O)N1CCc2c(ccnc2-c2ccccc2CNc2nc(OC3CCC(C)(C)NC3)nc3c(C(C)C)cnn23)C1 (centres unmarked) [Compound 199] yields pIC50 of > 7.00

get_value(item= C=C(F)C(=O)Nc1ccc2c(-c3ccccc3CNc3nc(O[C@H]4CCCNC4)nc4c(C(C)C)cnn34)nccc2c1 [Compound 159] , readout=pIC50) returns 6.00 to 7.00

The compound Cc1cccc(-c2cc3cccc(NC(=O)/C=C/CN(C)C)c3[nH]2)c1CNc1nc(NCC2CCNCC2)nc2c(C(C)C)cnn12 [Compound 139] showed pIC50 equal to > 7.00

The recorded pIC50 for CC(C)c1cnn2c(NCc3ccccc3-c3nccc4cc(NC(=O)/C=C/CN(C)C)ccc34)nc(N3CCC(S(=O)(=O)N(C)C)CC3)nc12 [Compound 126] is 6.00 to 7.00

Given item C=CC(=O)Nc1ccc2c(-c3ccccc3CNc3cc(NC4CCC(C)(C)NC4)nc4c(C(C)C)cnn34)nccc2c1 (centres unmarked) [Compound 184] , the value recorded as its pIC50 is > 7.00

Looking up C=CC(=O)Nc1ccc2c(-c3ccccc3CNc3cc(N[C@H]4CC[C@H](OC)CC4)nc4c(C(C)C)cnn34)nccc2c1 [Compound 116] , I found its pIC50 recorded as > 7.00

pIC50 for CC(C)c1cnn2c(NCc3ccccc3-c3nccc4cc(NC(=O)/C=C/CN(C)C)ccc34)nc(N3CCCC(O)CC3)nc12 (racemic) [Compound 38] is 6.00 to 7.00

Lookup result for C=C(F)C(=O)Nc1ccc2c(-c3ccccc3CNc3nc(N[C@H]4CN5CCC4CC5)nc4c(C(C)C)cnn34)nccc2c1 [Compound 176] ; measured pIC50: > 7.00

C=C(F)C(=O)Nc1ccc2c(-c3ccccc3CNc3cc(NC4CCC(OC)CC4)nc4c(C(C)C)cnn34)nccc2c1 (centres unmarked) [Compound 81] has a reported pIC50 of 6.00 to 7.00

* * *

# Measurement Target: CDK7/Cyclin H/MNAT1 (Homo sapiens)
# Method Notes: Enzymatic assay for CDK7 (LANCE Ultra kinase assay, FRET based)
# Condition Context: ATP at Km
# Experimental: Enzymatic Binding Assay Protocol for CDK1, CDK2, CDK5 and CDK7 Inhibition activity of the respective compound on CDK kinase under Km value of ATP was tested in FRET based The LANCE® Ultra kinase assay (Perkin Elmer), which uses a ULight™-labeled peptide substrate and an appropriate Europium-labeled anti-phospho-antibody. […] After 1 min centrifugation at 1000 rpm, purified CDKs/Cyclin complex were added with the following concentrations respectively. […] Data were analyzed using XL Fit software.
pIC50: −log10 of the molar value.
Quantity Kind: pIC50

Item: C=CC(=O)Nc1ccc2c(-c3ccccc3CNc3cc(N4CCC5(CC4)OCCO5)nc4c(C(C)C)cnn34)nccc2c1 | pIC50: > 7.00

For reference, reported pIC50 for C=CC(=O)Nc1ccc2c(-c3ccccc3CNc3cc(Nc4cccc(OC5CCC(C)(C)NC5)c4)nc4c(C(C)C)cnn34)nccc2c1 (stereo not shown) stands at > 7.00

Consider CC(C)c1cnn2c(NCc3ccccc3-c3nccc4cc(NC(=O)/C=C/CN(C)C)ccc34)nc(NCC3CNCCO3)nc12 (racemic) . Its measured pIC50 is > 7.00

Reported pIC50 for C=C(F)C(=O)Nc1ccc2c(-c3ccccc3CNc3nc(N[C@H]4CC[C@H](CS(=O)(=O)NC)CC4)nc4c(C(C)C)cnn34)nccc2c1 was 6.00 to 7.00

Memo: C=C(F)C(=O)Nc1ccc2c(-c3ccccc3CNc3nc(N4CCC(F)CC4)nc4c(C(C)C)cnn34)nccc2c1 , reported pIC50: 6.00 to 7.00

Entry C/C=C/C(=O)Nc1ccc2c(-c3ccccc3CNc3nc(NC[C@H]4CCNC[C@@H]4O)nc4c(C(C)C)cnn34)nccc2c1 ; pIC50 = > 7.00

# pIC50 of C=C(C)C(=O)Nc1ccc2c(-c3ccccc3CNc3nc(NC[C@H]4CCNC[C@@H]4O)nc4c(C(C)C)cnn34)nccc2c1 = > 7.00

pIC50 for C=C(F)C(=O)Nc1ccc2c(-c3ccccc3CNc3nc(NC[C@H]4CCN(C)C[C@@H]4O)nc4c(C(C)C)cnn34)nccc2c1 is > 7.00

The recorded pIC50 for entry C=C(F)C(=O)Nc1cccc2ccc(-c3cccc(C)c3CNc3nc(N4CCC(OC)CC4)nc4c(C(C)C)cnn34)nc12 equals < 6.00

Recorded result, C=CC(=O)Nc1ccc2c(-c3ccccc3CNc3nc(N4CCS(=O)(=O)CC4)nc4c(C(C)C)cnn34)nccc2c1 , pIC50: > 7.00

* * *

# Measurement Target: CDK7/Cyclin H/MNAT1 (Homo sapiens)
# Method Notes: Enzymatic assay for CDK7 (LANCE Ultra kinase assay, FRET based)
# Condition Context: ATP at Km
Quantity Kind: IC50

Note to self: IC50 recorded for CC(C)c1cnn2c(NCc3ccccc3-c3cc4c(NC(=O)/C=C/CN(C)C)cccc4[nH]3)nc(N3CCC(N)CC3)nc12 was < 100 nM

Entry CC(C)c1cnn2c(NCc3ccccc3-c3nccc4cc(NC(=O)/C=C/CN(C)C)ccc34)nc(N3CCC4(CCN(C)CC4)CC3)nc12 — recorded IC50 = < 100 nM

Reported IC50 ( Cc1cccc(-c2ccc3cccc(NC(=O)/C=C/CN(C)C)c3n2)c1CNc1nc(NCC2CCNCC2)nc2c(C(C)C)cnn12 ) = < 100 nM

Summary for this compound, C=CC(=O)Nc1ccc2c(-c3ccccc3CNc3nc(NC[C@H]4CCNC[C@@H]4O)nc4c(C(C)C)cnn34)nccc2c1 : IC50 is < 100 nM

Recorded result, C=C(F)C(=O)Nc1ccc2c(-c3ccccc3CNc3nc(N[C@H]4CC[C@H](NC)CC4)nc4c(C(C)C)cnn34)nccc2c1 , IC50: < 100 nM

IC50 in this record for CC(C)c1cnn2c(NCc3ccccc3-c3nccc4cc(NC(=O)/C=C/CN(C)C)ccc34)nc(N3CC4(COC4)C3)nc12 : 100 to 1000 nM

// CC(C)c1cnn2c(NCc3ccccc3-c3nccc4cc(NC(=O)/C=C/CN(C)C)ccc34)nc(NC[C@H]3CCNC[C@@H]3O)nc12 : IC50 value = < 100 nM

The compound listed as CC(C)c1cnn2c(NCc3ccccc3-c3nccc4cc(NC(=O)/C=C/CN(C)C)ccc34)nc(NCC3CCNC(=O)C3)nc12 (racemic) shows IC50 equal to 100 to 1000 nM

Per the records, this compound ( C=CC(=O)Nc1ccc2c(-c3ccccc3CNc3nc(Nc4ccncc4)nc4c(C(C)C)cnn34)nccc2c1 ) has IC50 equal to 100 to 1000 nM

Recorded result, C=C(F)C(=O)Nc1ccc2c(-c3ccccc3CNc3nc(NC4CCC(OC)CC4)nc4c(C(C)C)cnn34)nccc2c1 (stereo not drawn) , IC50: 100 to 1000 nM

Value of measured IC50 for the entry C=CC(=O)Nc1ccc2c(-c3ccccc3CNc3nc(Oc4cccnc4)nc4c(C(C)C)cnn34)nccc2c1 : 100 to 1000 nM

So, C=C(F)C(=O)Nc1ccc2c(-c3ccccc3CNc3cc(C)nc4c(C(C)C)cnn34)nccc2c1 ? Its IC50 was 100 to 1000 nM

Data provenance is patent US12606561B2.
